Please provide measured inhibition at 24 h, 500 µM for the entries that follow.
- Assay overview: Growth inhibition of human OC-3-VGH cells at 0.5 mM after 24 hrs by MTT assay
- Type: cell-based
- Assay context: read-out: GI
// return numeric value only (unit: %, not printed)

Query string: Entry under review: "C[n+]1ccn(CCCCCCCCCCCCCCCCCCn2cc[n+](C)c2)c1.[Cl-].[Cl-]" . Reported inhibition at 24 h, 500 µM?
Result string: 80

Query string: Given the compound "CS(=O)(=O)[O-].CS(=O)(=O)[O-].C[n+]1ccn(CCCCCCCCCCCCCCCCCCCCn2cc[n+](C)c2)c1" , what is its reported inhibition at 24 h, 500 µM?
Result string: 80

---

- Tested on: Escherichia coli
- Assay overview: Inhibition of recombinant Escherichia coli O104:H4 Beta-1,3-galactosyltransferase WbwC expressed in Escherichia coli BL21 at 0.5 mM in presence of UDP-[3H]Gal and GalNAC-PO3-PO3-(CH2)11-O-phenyl after 1 hr by scintillation counting method relative to control
Please respond with reported inhibition for every item in the list.

Query string: Suppose we examine the compound "CCCCCCCCCC[n+]1ccn(CCCCCCCCCCn2cc[n+](CCCCCCCCCC)c2)c1" ; what inhibition value has been reported?
Result string: 98%

Query string: inhibition for "CCCCCCCCCCC[n+]1ccn(CCCCCCCCCCCCCCCCn2cc[n+](CCCCCCCCCCC)c2)c1" ?
Result string: 92%

Query string: Look up inhibition: "CCCCCC[n+]1ccn(CCCCCCCCCCn2cc[n+](CCCCCC)c2)c1"
Result string: < 1%

Query string: Requested read-out: inhibition. Entry: "CCCCCCCCCCC[n+]1ccn(CCCCCCCCCCn2cc[n+](CCCCCCCCCCC)c2)c1"
Result string: 98%

Query string: Look up inhibition: "CCCCCCCCC[n+]1ccn(CCCCCCn2cc[n+](CCCCCCCCC)c2)c1"
Result string: < 10%

Query string: I would be grateful if you could share the reported inhibition for "C[n+]1ccn(CCCCCCCCCCCCCCCCCCCCCCn2cc[n+](C)c2)c1" .
Result string: 91%

Query string: Consider the compound "C[n+]1ccn(CCCCCCCCCCCCCCCn2cc[n+](C)c2)c1" and give its measured inhibition.
Result string: 11%

Query string: // returns reported inhibition for input "CCCCCCCCCCC[n+]1ccn(CCCCCCn2cc[n+](CCCCCCCCCCC)c2)c1"
Result string: 99%

Query string: Tell me the measured inhibition of "CCCCCCC[n+]1ccn(CCCCCCCCCCCCCCCCn2cc[n+](CCCCCCC)c2)c1" , please.
Result string: 95%

Query string: // returns reported inhibition for input "CCCCCCC[n+]1ccn(CCCCCCCCCCn2cc[n+](CCCCCCC)c2)c1"
Result string: < 1%

---

- Assay overview: Growth inhibition of human OC-3-VGH cells at 1 mM after 24 hrs by MTT assay
- Assay type: cell-based
- Assay context: read-out: GI
Experimental readout: inhibition at 24 h, 1000 µM (%)
Please reply with the bare figure in % and do not write the unit itself.

Query string: Fill in the blank: the reported inhibition at 24 h, 1000 µM of "CCCC(=O)N[C@@H]1[C@@H](O)[C@H](O)[C@@H](CO)O[C@H]1Sc1ccc2ccccc2c1" is ____.
Result string: 50

---

- Tested on: Escherichia coli
- Assay overview: Inhibition of recombinant Escherichia coli O104:H4 Beta-1,3-galactosyltransferase WbwC expressed in Escherichia coli BL21 at 0.5 mM in presence of UDP-[3H]Gal and GalNAC-PO3-PO3-(CH2)11-O-phenyl after 1 hr by scintillation counting method relative to control
Label Condition met when inhibition is at or above 90%; anything below gets Condition not met.

Query string: Reported inhibition reaches at least 90% for "CCCCCCCCC[n+]1ccn(CCCCCCCCCCCCCCCCn2cc[n+](CCCCCCCCC)c2)c1" ?
Result string: Condition met

Query string: Form field: inhibition at least 90%? Entry: "C[n+]1ccn(CCCCn2cc[n+](C)c2)c1"
Result string: Condition not met

Query string: Evaluate "C[n+]1ccn(CCCCCCCCCCCCCCCCCCn2cc[n+](C)c2)c1.[Cl-].[Cl-]" : inhibition at minimum 90%?
Result string: Condition not met

Query string: Decide: inhibition of "C[n+]1ccn(CCCCCCCCCCCCCCn2cc[n+](C)c2)c1" >= 90%?
Result string: Condition not met

Query string: Reported inhibition reaches at least 90% for "CCCCCCC[n+]1ccn(CCCCCCn2cc[n+](CCCCCCC)c2)c1" ?
Result string: Condition not met

Query string: Confirm if inhibition reported for the compound "C[n+]1ccn(CCCCCCCCCCCCCCCCn2cc[n+](C)c2)c1" is 90% or above.
Result string: Condition not met

---

- Test system: Escherichia coli
- Assay overview: Antimicrobial activity against Escherichia coli BL21 assessed as inhibition of colony formation at 5 uM preincubated for 4 hrs and measured after overnight incubation by CFU assay
- Assay type: functional
Experimental readout: inhibition at 5 µM
Your answer should be a number followed by the unit of measure.

Query string: # value lookup — system Escherichia coli, readout inhibition at 5 µM, item "CCCCCCCCCCCC[n+]1ccn(CCCCCCCCCCn2cc[n+](CCCCCCCCCCCC)c2)c1"
Result string: 100%

Query string: Lookup: inhibition at 5 µM / Escherichia coli / "C[n+]1ccn(CCCCCCCCCCCCCCn2cc[n+](C)c2)c1"
Result string: 0%

Query string: GET /values?readout=inhibition at 5 µM&system=Escherichia coli&item= "CCCCCCCCCCC[n+]1ccn(CCCCCCCCCCCCCCCCn2cc[n+](CCCCCCCCCCC)c2)c1"
Result string: 100%

Query string: Request body: readout inhibition at 5 µM, system Escherichia coli, query "CCCCCCCC[n+]1ccn(CCCCCCCCCCn2cc[n+](CCCCCCCC)c2)c1" . Return the value.
Result string: 100%

---

- Tested on: Escherichia coli
- Assay overview: Inhibition of recombinant Escherichia coli O104:H4 Beta-1,3-galactosyltransferase WbwC expressed in Escherichia coli BL21 at 0.5 mM in presence of UDP-[3H]Gal and GalNAC-PO3-PO3-(CH2)11-O-phenyl after 1 hr by scintillation counting method relative to control
Experimental readout: inhibition (%)
# unit: % | format: bare number

Query string: // returns reported inhibition for input "C[n+]1ccn(CCCCCCn2cc[n+](C)c2)c1"
Result string: 7

Query string: Endpoint output: inhibition of "CCCCCCCCCC[n+]1ccn(CCCCCCCCCCCCCCCCn2cc[n+](CCCCCCCCCC)c2)c1" . Value?
Result string: 92

Query string: Look at this compound and give its reported inhibition. "CCCCCC[n+]1ccn(CCCCCCn2cc[n+](CCCCCC)c2)c1"
Result string: 6

Query string: Requested field: inhibition. Item: "CCCCCCCC[n+]1ccn(CCCCCCn2cc[n+](CCCCCCCC)c2)c1"
Result string: 13

Query string: If you can, please state the reported inhibition value of "CCCCCCCCCCCC[n+]1ccn(CCCCCCn2cc[n+](CCCCCCCCCCCC)c2)c1" .
Result string: 90

---

Consider the following compounds; for each one, report its inhibition at 10 µM.
- Test system: Bacillus subtilis
- Assay overview: Antimicrobial activity against Bacillus subtilis assessed as inhibition of colony formation at 10 uM preincubated for 4 hrs and measured after overnight incubation by CFU assay
- Assay type: functional
Expressed in %, but write only the number.

Query string: # get_value(readout='inhibition at 10 µM', item= "CCCCCCCCCCC[n+]1ccn(CCCCCCCCCCCCCCCCn2cc[n+](CCCCCCCCCCC)c2)c1" )
Result string: 100

Query string: Please report the recorded inhibition at 10 µM for "CCCCCCCC[n+]1ccn(CCCCCCCCCCn2cc[n+](CCCCCCCC)c2)c1" .
Result string: 100

Query string: Could you tell me which inhibition at 10 µM is on file for "CCCCCCCCCCCC[n+]1ccn(CCCCCCCCCCn2cc[n+](CCCCCCCCCCCC)c2)c1" ?
Result string: 100

Query string: Look at this compound and give its reported inhibition at 10 µM. "C[n+]1ccn(CCCCCCCCCCCCCCn2cc[n+](C)c2)c1"
Result string: 20

---

- System: Pseudomonas aeruginosa
- Assay overview: Antimicrobial activity against Pseudomonas aeruginosa PAO1 assessed as inhibition of colony formation at 25 uM preincubated for 4 hrs and measured after overnight incubation by CFU assay
- Assay type: functional
Please respond with reported inhibition at 25 µM for every item in the list.
Report as a plain number; the unit % is understood.

Query string: Fill blank: measured inhibition at 25 µM of the compound "CCCCCCCC[n+]1ccn(CCCCCCCCCCn2cc[n+](CCCCCCCC)c2)c1" is ____.
Result string: 100

Query string: Given the entry "C[n+]1ccn(CCCCCCCCCCCCCCn2cc[n+](C)c2)c1" , report its measured inhibition at 25 µM.
Result string: 22

Query string: Which inhibition at 25 µM value is on record for "CCCCCCCCCCC[n+]1ccn(CCCCCCCCCCCCCCCCn2cc[n+](CCCCCCCCCCC)c2)c1" ?
Result string: 100
